B1: HESX1 (parent)
chain: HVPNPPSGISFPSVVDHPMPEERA

Variants of: B1
PROTOCOL NOTES: protein stability index of a GFP-peptide fusion (GPS, HEK-293T) (PSI 1-6); higher = more stable;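 further: lentivirally expressed fusions sorted by FACS into six bins by GFP to DsRed ratio, PSI derived from sequencing read proportions per bin multiplied by bin number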
APPLIED CONDITIONS: c terminus: a fixed tail appended
Is protein stability index at least 4? Then Fulfilled. If not, Not fulfilled.

QUERY: State whether the measured protein stability index reaches 4, counting equality as reaching it, for "P18C"
RESULT: Not fulfilled

QUERY: State whether the measured protein stability index reaches 4, counting equality as reaching it, for "V15C"
RESULT: Not fulfilled

QUERY: State whether the measured protein stability index reaches 4, counting equality as reaching it, for "S10C"
RESULT: Not fulfilled

QUERY: State whether the measured protein stability index reaches 4, counting equality as reaching it, for "I9T"
RESULT: Not fulfilled

QUERY: State whether the measured protein stability index reaches 4, counting equality as reaching it, for "F11S"
RESULT: Fulfilled

QUERY: State whether the measured protein stability index reaches 4, counting equality as reaching it, for "V14E"
RESULT: Fulfilled

QUERY: State whether the measured protein stability index reaches 4, counting equality as reaching it, for "N4C"
RESULT: Not fulfilled

QUERY: State whether the measured protein stability index reaches 4, counting equality as reaching it, for "D16L"
RESULT: Not fulfilled

QUERY: State whether the measured protein stability index reaches 4, counting equality as reaching it, for "P12D"
RESULT: Fulfilled

QUERY: State whether the measured protein stability index reaches 4, counting equality as reaching it, for "P5Y"
RESULT: Not fulfilled

QUERY: State whether the measured protein stability index reaches 4, counting equality as reaching it, for "M19A"
RESULT: Not fulfilled

QUERY: State whether the measured protein stability index reaches 4, counting equality as reaching it, for "M19N"
RESULT: Not fulfilled

QUERY: State whether the measured protein stability index reaches 4, counting equality as reaching it, for "P6M"
RESULT: Not fulfilled

QUERY: State whether the measured protein stability index reaches 4, counting equality as reaching it, for "V15G"
RESULT: Not fulfilled

QUERY: State whether the measured protein stability index reaches 4, counting equality as reaching it, for "I9G"
RESULT: Not fulfilled

QUERY: State whether the measured protein stability index reaches 4, counting equality as reaching it, for "V2R"
RESULT: Fulfilled

Attribution: the supplement of paper PMC10567573
